molecular target: human KEAP1 (N-term, residues 321-609) (Homo sapiens, UniProt Q14145); assay: biochemical
Sequence (Q14145 321-609): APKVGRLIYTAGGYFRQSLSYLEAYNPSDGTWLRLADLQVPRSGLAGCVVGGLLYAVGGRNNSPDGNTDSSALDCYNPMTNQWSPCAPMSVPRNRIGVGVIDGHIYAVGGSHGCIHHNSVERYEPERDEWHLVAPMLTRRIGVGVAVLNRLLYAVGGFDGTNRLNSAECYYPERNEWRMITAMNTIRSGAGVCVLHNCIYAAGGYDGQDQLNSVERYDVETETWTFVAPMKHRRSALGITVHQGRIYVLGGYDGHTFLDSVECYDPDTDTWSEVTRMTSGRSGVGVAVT
pIC50: −log10 of the molar value.
reported.endpoint: pIC50

Example results:
Can you share its pIC50? I mean this compound: `Cn1nnc(COc2ccc(Cl)c3c2[C@@H](CN2CC4(CC4)CC2=O)N(C(=O)[C@@H]2C[C@H](O)CC[C@]2(C)C(=O)O)CC3)c1C(F)F`
8.19

Can you share its pIC50? I mean this compound: `C[C@]1(C(=O)O)CCCC[C@H]1C(=O)N1CCc2c(Cl)ccc(OCc3nnc4n3CCOC4)c2[C@H]1CN1CC2(CC2)CC1=O`
8.21

Can you share its pIC50? I mean this compound: `C[C@H]1CCC(=O)N1C[C@@H]1c2c(OCc3nnn(C)c3C(F)F)ccc(Cl)c2CCN1C(=O)[C@@H]1CCCC[C@]1(C)C(=O)O`
7.89

Can you share its pIC50? I mean this compound: `O=C(O)[C@H]1CCCC[C@H]1C(=O)N1CCc2c(Br)ccc(OCc3cccnn3)c2[C@H]1CN1Cc2ccccc2C1=O`
8.04

Can you share its pIC50? I mean this compound: `Cc1nc(COc2ccc(Cl)c3c2[C@@H](CN2CCCC2=O)N(C(=O)[C@@H]2CCCC[C@]2(C)C(=O)O)CC3)no1`
8.07

Can you share its pIC50? I mean this compound: `CCn1cnc(COc2ccc(Br)c3c2[C@@H](CN2Cc4ccccc4C2=O)N(C(=O)[C@@H]2CCCC[C@@H]2C(=O)O)CC3)c1C#N`
8.00

A: C[C@]1(C(=O)O)CCCC[C@H]1C(=O)N1CCc2c(Cl)ccc(OCc3nnn(C4COC4)c3C(F)F)c2[C@H]1CN1CC2(CC2)CC1=O
B: CC(Oc1ccc(Br)c2c1[C@@H](CN1Cc3ccccc3C1=O)N(C(=O)[C@@H]1CCCC[C@@H]1C(=O)O)CC2)c1cn(C(C)C)nn1 (single isomer, unassigned) [Example 47]
C: Cn1nnc(COc2ccc(Cl)c3c2[C@@H](CN2CCCC2=O)N(C(=O)C2CCOC2C(=O)O)CC3)c1C(F)F (stereo partly drawn)
D: Cn1nnc(COc2ccc(Cl)c3c2[C@@H](CN2CC(C(F)(F)F)CC2=O)N(C(=O)[C@@H]2CCCC[C@]2(C)C(=O)O)CC3)c1C(F)F (single isomer, unassigned) [Example 213]
Please rank these compounds by pIC50 in descending order. Respond with an ordered listing of the labels, as requested.
D, A, C, B

###

biological target: human KEAP1 (N-term, residues 321-609) (Homo sapiens); experiment: biochemical;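 further: fluorescence polarization competition assay of Kelch domain binding to NRF2, 12-point 1:3 dilution series from 10 µM, read after 1 h at room temperature, floor 10 nM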
reported.endpoint: IC50 (nM)

1: O=C(O)[C@H]1CCCC[C@H]1C(=O)N1CCc2cccc(O[C@H]3CCN(C(=O)c4cncs4)C3)c2[C@H]1CN1Cc2ccccc2C1=O [Example 15]
2: C[C@@H]1CCC(=O)N1C[C@@H]1c2c(OCc3nnn(C)c3C(F)F)ccc(Cl)c2CCN1C(=O)[C@@H]1CCCC[C@]1(C)C(=O)O [Example 194]
Between these two entries, 1 and 2 , state which has the higher IC50. Kindly give the label for the entry you pick.
2
(2: 7.9 nM, 1: 5.1 nM)

A: O=C(O)[C@H]1CCCC[C@H]1C(=O)N1CCc2c(Cl)ccc(O[C@H]3CCN(C(=O)c4cncs4)C3)c2[C@H]1CN1C(=O)c2ccccc2C1=O [Example 14]
B: CC(C)n1cc(COc2ccc(Br)c3c2[C@@H](CN2Cc4ccccc4C2=O)N(C(=O)[C@@H]2CCCC[C@@H]2C(=O)O)CC3)nn1 [Example 35]
Between these two entries, A and B , state which has the higher IC50. Kindly give the label for the entry you pick.
B
(B: 9.9 nM, A: 3.7 nM)

P: CC(=O)N1CC[C@H](Oc2ccc(Cl)c3c2[C@@H](CN2CC4(CC4)CC2=O)N(C(=O)[C@@H]2CCCC[C@]2(C)C(=O)O)CC3)C1 [Example 188]
Q: C[C@]1(C(=O)O)CCCC[C@H]1C(=O)N1CCc2c(Cl)ccc(OCc3noc4c(F)c(F)ccc34)c2[C@H]1CN1CCCC1=O [Example 165]
Between these two entries, P and Q , state which has the higher IC50. Kindly give the label for the entry you pick.
Q
(Q: 8.4 nM, P: 4.9 nM)
